Target: P. falciparum apicoplast DNA polymerase (Pf-apPOL) (Plasmodium falciparum, UniProt Q8ILY1)
Sequence (Q8ILY1 entry or part of it): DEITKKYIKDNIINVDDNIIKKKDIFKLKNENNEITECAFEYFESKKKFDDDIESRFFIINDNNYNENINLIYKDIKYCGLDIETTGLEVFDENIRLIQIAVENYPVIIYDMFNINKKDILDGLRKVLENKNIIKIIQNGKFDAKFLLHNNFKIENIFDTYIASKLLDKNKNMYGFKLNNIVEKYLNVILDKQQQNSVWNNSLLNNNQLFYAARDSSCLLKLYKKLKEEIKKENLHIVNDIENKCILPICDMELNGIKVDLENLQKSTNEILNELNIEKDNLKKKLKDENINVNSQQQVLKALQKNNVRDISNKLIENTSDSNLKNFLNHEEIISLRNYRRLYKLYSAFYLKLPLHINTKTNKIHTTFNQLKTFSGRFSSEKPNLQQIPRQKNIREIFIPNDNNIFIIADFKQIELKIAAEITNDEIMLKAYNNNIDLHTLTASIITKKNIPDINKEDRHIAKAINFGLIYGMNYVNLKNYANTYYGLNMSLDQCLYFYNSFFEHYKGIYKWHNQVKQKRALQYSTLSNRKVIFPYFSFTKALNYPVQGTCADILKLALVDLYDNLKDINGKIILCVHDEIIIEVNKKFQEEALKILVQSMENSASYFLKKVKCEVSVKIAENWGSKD
Test: Fluorescence-based high-throughput DNA polymerase assay (molecular beacon), primary screen and dose-response
Type: biochemical
Details: DRC-2; 5'; conc 20
Mark condition not met for % inhibition Apo pol 5' values under 40%, and condition met for everything at or above.

Would you please look over these solved cases?
compound: COc1ccccc1C1CC(=O)Oc2cc3c(cc21)OCO3 (stereo not drawn)
class name: condition met
--
compound: O=c1nc(/C=C/c2ccc(Br)cc2)oc2ccccc12
class name: condition not met
--
compound: O=C1NN(c2ccc(Cl)c(Cl)c2)C(=O)/C1=C/c1ccc(-c2ccc3c(c2)C(=O)OC3)o1
class name: condition not met
--
compound: Cc1ccccc1NC(=O)Cn1ccc2c(=O)[nH]ccc21 [Molecule 50, O=C(Cn1ccc2c1cc[nH]c2=O)Nc1ccc(cc1)C]
class name: condition met
--
compound: Cc1ccc(N2NC(=O)/C(=C\c3ccc(O)c([N+](=O)[O-])c3)C2=O)cc1Cl
class name: condition met

Pending compound:
Exam item: Could you please find out whether O=C(O)c1ccc(COc2cc([N+](=O)[O-])cc3cccnc23)cc1 has % inhibition Apo pol 5' that meets 40% or exceeds it?
Marked response: condition met

---

Biological target: P. falciparum apicoplast DNA polymerase (Pf-apPOL) (Plasmodium falciparum)
Assay: Fluorescence-based high-throughput DNA polymerase assay (molecular beacon), primary screen and dose-response
Type: biochemical
Conditions: DRC-2; 90'; conc 20
Mark -1 for % inhibition ApPOL 90' values under 60%, and 1 for everything at or above.

Would you please look over these solved cases?
compound: O=c1nc(/C=C/c2ccc(Br)cc2)oc2ccccc12 [KU0052629]
assay system: P. falciparum apicoplast DNA polymerase (Pf-apPOL) (Plasmodium falciparum)
class name: -1
//
compound: Cc1ccc(CNC(=O)c2cnn3c(O)cc(CSc4ccc(Cl)cc4)nc23)cc1 [Molecule 99]
assay system: P. falciparum apicoplast DNA polymerase (Pf-apPOL) (Plasmodium falciparum)
class name: 1
//
compound: CC(C)CCNC(=O)c1cnn2c(O)cc(CSc3ccc(Cl)cc3)nc12 [Molecule 101]
assay system: P. falciparum apicoplast DNA polymerase (Pf-apPOL) (Plasmodium falciparum)
class name: 1
//
compound: Cc1cc(C)c2c(c1)C1C=CCC1C(c1ccc(C(=O)O)cc1)N2 (stereo not drawn) [Molecule 102]
assay system: P. falciparum apicoplast DNA polymerase (Pf-apPOL) (Plasmodium falciparum)
class name: 1
//
compound: Cc1ccc(NC(=O)Cn2ccc3c(=O)[nH]ccc32)c(C)c1 [KU0205125]
assay system: P. falciparum apicoplast DNA polymerase (Pf-apPOL) (Plasmodium falciparum)
class name: -1
//
compound: Cc1ccccc1NC(=O)Cn1ccc2c(=O)[nH]ccc21 [Molecule 50, O=C(Cn1ccc2c1cc[nH]c2=O)Nc1ccc(cc1)C]
assay system: P. falciparum apicoplast DNA polymerase (Pf-apPOL) (Plasmodium falciparum)
class name: 1
//
compound: C=CC1=C(C)c2cc3[nH]c(cc4nc(cc5[nH]c(cc1n2)c(C)c5CCC(=O)O)C(CCC(=O)O)=C4C)c(C)c3C=C [Molecule 91]
assay system: P. falciparum apicoplast DNA polymerase (Pf-apPOL) (Plasmodium falciparum)
class name: 1

Pending compound:
Exam item: Could you please find out whether Cc1cccc(C2=N/C(=C\c3ccc([N+](=O)[O-])o3)C(=O)O2)c1 [KU0058960] has % inhibition ApPOL 90' that meets 60% or exceeds it?
Marked response: -1
